Would you mind telling me the reported pEC50 of each entry?
Biological target: AXOR109 (Homo sapiens, UniProt Q8TDU6)
Sequence (Q8TDU6 whole entry): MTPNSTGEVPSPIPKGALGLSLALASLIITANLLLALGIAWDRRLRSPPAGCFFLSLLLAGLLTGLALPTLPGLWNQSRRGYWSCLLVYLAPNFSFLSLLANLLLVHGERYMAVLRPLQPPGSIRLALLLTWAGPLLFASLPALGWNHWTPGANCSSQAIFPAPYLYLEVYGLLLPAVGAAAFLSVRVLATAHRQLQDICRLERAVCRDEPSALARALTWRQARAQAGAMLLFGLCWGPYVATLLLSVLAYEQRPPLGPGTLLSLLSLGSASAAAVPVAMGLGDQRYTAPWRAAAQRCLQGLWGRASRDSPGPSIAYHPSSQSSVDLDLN
Assay: Human AXOR109/Melanophore Assay
Details: melanophore assay, AXOR109 transfected melanophores
pEC50: −log10 of the molar value.

Item COc1ccc(S(=O)(=O)N2CC(C)N(S(=O)(=O)c3ccc(OC)c(OC)c3)C(C)C2C)cc1OC (stereo not shown) : provide pEC50
5.00 to 5.90

Item COc1ccc(S(=O)(=O)N(C)CCN(C)S(=O)(=O)c2ccc(OC)c(OC(F)(F)F)c2)cc1OC : provide pEC50
6.00 to 6.90

Item CCN(C[C@H]1CCCN1S(=O)(=O)c1ccc(OC)c(OC)c1)S(=O)(=O)c1ccc(OC)c(OC)c1 : provide pEC50
> 6.90

Item COc1ccc(S(=O)(=O)N2[C@H](C)CN(S(=O)(=O)c3ccc(OC)c(OC)c3)C[C@@H]2C)cc1O : provide pEC50
5.00 to 5.90

Item CCN(CCN(C1CC1)S(=O)(=O)c1ccc(OC)c(OC)c1)S(=O)(=O)c1ccc(OC)c(OC)c1 : provide pEC50
6.00 to 6.90

Item COc1ccc(S(=O)(=O)N(C)CCN(C)S(=O)(=O)c2ccc(OC)c(OC)c2)cc1OC : provide pEC50
> 6.90

Item COc1ccc(S(=O)(=O)N2CCN(S(=O)(=O)c3ccc(OC)c(OC)c3)CC2)cc1OC : provide pEC50
5.00 to 5.90

----------
Would you mind telling me the reported EC50 of each entry?
Target: AXOR109 (Homo sapiens, UniProt Q8TDU6)
Assay: Human AXOR109/Melanophore Assay
Details: melanophore assay, AXOR109 transfected melanophores

Item COc1ccc(S(=O)(=O)N2CCN(S(=O)(=O)c3ccc(C)cc3OC)CC2)cc1OC : provide EC50
1.26 to 10 µM

Item COc1ccc(S(=O)(=O)N2C[C@@H](C)N(S(=O)(=O)c3ccc(OC)c(OC)c3)[C@H](C)C2)cc1OC : provide EC50
0.126 to 1 µM

Item COc1ccc(S(=O)(=O)N2C[C@@H](C)N(S(=O)(=O)c3ccc(OC)c(OC)c3)[C@@H](C)C2)cc1OC [Example 79] : provide EC50
< 0.126 µM

Item COc1ccc(S(=O)(=O)N2CCN(S(=O)(=O)c3ccc(OC)c(OC)c3)C(=O)C2=O)cc1OC : provide EC50
1.26 to 10 µM

Item COc1ccc(S(=O)(=O)N2[C@H](C)CN(S(=O)(=O)c3ccc(-c4cnco4)cc3)C[C@@H]2C)cc1OC : provide EC50
1.26 to 10 µM

Item COc1ccc(S(=O)(=O)N2CCN(S(=O)(=O)c3ccc(OC)c(OC)c3)CC2)cc1F : provide EC50
0.126 to 1 µM

Item COc1ccc(S(=O)(=O)N2C[C@@H](C)N(S(=O)(=O)c3ccc(OC)c(OC)c3)[C@@H](C)C2)cc1F : provide EC50
0.126 to 1 µM

----------
Biological target: AXOR109 (Homo sapiens)
Experiment: Human AXOR109/Melanophore Assay
Conditions: melanophore assay, AXOR109 transfected melanophores
pEC50: −log10 of the molar value.
reported-property: pEC50

Item COc1ccc(S(=O)(=O)NC2CCCCN(S(=O)(=O)c3ccc(OC)c(OC)c3)C2)cc1OC (stereo not drawn) [Example 25] : provide pEC50
5.00 to 5.90

Item COc1ccc(S(=O)(=O)NCCNS(=O)(=O)c2ccc(OC)c(OC)c2)cc1OC [Example 26] : provide pEC50
5.00 to 5.90

Item CCc1cc(S(=O)(=O)N(C)CCN(C)S(=O)(=O)c2ccc(OC)c(OC)c2)ccc1OC [Example 43] : provide pEC50
6.00 to 6.90

Item COc1ccc(S(=O)(=O)N2CCN(S(=O)(=O)c3ccc(OC)c(OC)c3)C(C)C2)cc1OC (stereo not drawn) [Example 29] : provide pEC50
6.00 to 6.90

Item COc1cccc(S(=O)(=O)N(C)CCN(C)S(=O)(=O)c2ccc(OC)c(OC)c2)c1 [Example 10] : provide pEC50
6.00 to 6.90

Item COc1ccc(S(=O)(=O)N2CC(C)N(S(=O)(=O)c3ccc(OC)c(OC)c3)CC2C)cc1OC (stereo not drawn) [Example 18] : provide pEC50
> 6.90

Item COc1ccc(S(=O)(=O)N2C[C@H](C)N(S(=O)(=O)c3ccc(OC)c(OC)c3)C[C@@H]2C)cc1F [Example 67] : provide pEC50
6.00 to 6.90

Item COc1ccc(S(=O)(=O)N2CCN(S(=O)(=O)c3ccc(OC)c(OC)c3)C(=O)C2)cc1OC [Example 76] : provide pEC50
5.00 to 5.90

Item COc1ccc(S(=O)(=O)N2CCCN(S(=O)(=O)c3ccc(OC)c(OC)c3)CC2)cc1OC [Example 9] : provide pEC50
6.00 to 6.90

Item COc1ccc(S(=O)(=O)N2CCN(S(=O)(=O)c3ccc(OC)c(OC)c3)[C@@H](C)[C@H]2C)cc1OC [Example 40] : provide pEC50
6.00 to 6.90

Item CCN([C@H]1CCN(S(=O)(=O)c2ccc(OC)c(OC)c2)C1)S(=O)(=O)c1ccc(OC)c(OC)c1 [Example 62] : provide pEC50
5.00 to 5.90

Item CCCN(C[C@@H]1CCCN1S(=O)(=O)c1ccc(OC)c(OC)c1)S(=O)(=O)c1ccc(OC)c(OC)c1 [Example 96] : provide pEC50
6.00 to 6.90

Item COc1ccc(S(=O)(=O)N2C[C@@H]3C[C@H]2CN3S(=O)(=O)c2ccc(OC)c(OC)c2)cc1OC [Example 86] : provide pEC50
5.00 to 5.90

Item COc1ccc(S(=O)(=O)N2CC[C@H](N(C)S(=O)(=O)c3ccc(OC)c(OC)c3)C2)cc1OC (stereo in doubt) [Example 84] : provide pEC50
5.00 to 5.90

Item COc1ccc(S(=O)(=O)N2C[C@H](C)N(S(=O)(=O)c3ccc(OC)c(OC)c3)[C@@H](C)C2)cc1OC [Example 21] : provide pEC50
6.00 to 6.90

Item COc1ccc(S(=O)(=O)N(CCN(C2CC2)S(=O)(=O)c2ccc(OC)c(OC)c2)C(C)C)cc1OC [Example 89] : provide pEC50
6.00 to 6.90

Item CCCN(C[C@H]1CCCN1S(=O)(=O)c1ccc(OC)c(OC)c1)S(=O)(=O)c1ccc(OC)c(OC)c1 [Example 99] : provide pEC50
> 6.90

Item COc1ccc(S(=O)(=O)N2CCN(S(=O)(=O)c3c(C)cccc3Cl)CC2)cc1OC [Example 5] : provide pEC50
5.00 to 5.90

Item COc1ccc(S(=O)(=O)N[C@@H]2CCN(S(=O)(=O)c3ccc(OC)c(OC)c3)C2)cc1OC [Example 77] : provide pEC50
5.00 to 5.90

Item COc1ccc(S(=O)(=O)N2CCC(N(CC3CCC3)S(=O)(=O)c3ccc(OC)c(OC)c3)C2)cc1OC (stereo not drawn) [Example 58] : provide pEC50
5.00 to 5.90

Item CCCN([C@H]1CCN(S(=O)(=O)c2ccc(OC)c(OC)c2)C1)S(=O)(=O)c1ccc(OC)c(OC)c1 [Example 61] : provide pEC50
5.00 to 5.90

Item COc1ccc(S(=O)(=O)N2C[C@H](C)N(S(=O)(=O)c3ccc(OC)c(OC)c3)C[C@@H]2C)cc1OC [Example 47] : provide pEC50
> 6.90

Item COc1ccc(S(=O)(=O)N2CCN(S(=O)(=O)c3ccc4c(c3)OCCO4)CC2)cc1OC [Example 78] : provide pEC50
5.00 to 5.90

Item COc1ccc(S(=O)(=O)N2CCN(S(=O)(=O)c3ccc(OC)c(OC)c3)CC2)cc1 [Example 6] : provide pEC50
6.00 to 6.90

Item COc1ccc(S(=O)(=O)N2C[C@H](C)N(S(=O)(=O)c3ccc4c(c3)OCO4)C[C@@H]2C)cc1OC [Example 70] : provide pEC50
6.00 to 6.90

Item COc1ccc(S(=O)(=O)N2CCCN(S(=O)(=O)c3ccc(OC)c(OC(F)(F)F)c3)CC2)cc1OC [Example 30] : provide pEC50
5.00 to 5.90

Item CCC1CN(S(=O)(=O)c2ccc(OC)c(OC)c2)C(C)CN1S(=O)(=O)c1ccc(OC)c(OC)c1 (stereo not drawn) [Example 46] : provide pEC50
5.00 to 5.90

Item COc1ccc(S(=O)(=O)N(C)CCN(C)S(=O)(=O)c2ccc3c(c2)OCCO3)cc1OC [Example 13] : provide pEC50
5.00 to 5.90

Item COc1ccc(S(=O)(=O)N2CCN(S(=O)(=O)c3ccc(OC)c(OC)c3)CC(F)C2)cc1OC [Example 52] : provide pEC50
6.00 to 6.90

Item COc1ccc(S(=O)(=O)N2C[C@@H](C)N(S(=O)(=O)c3ccc(OC)c(OC)c3)[C@@H](C)C2)cc1 [Example 35] : provide pEC50
6.00 to 6.90
